Target: UniProt:O00519
Sequence (O00519 whole entry): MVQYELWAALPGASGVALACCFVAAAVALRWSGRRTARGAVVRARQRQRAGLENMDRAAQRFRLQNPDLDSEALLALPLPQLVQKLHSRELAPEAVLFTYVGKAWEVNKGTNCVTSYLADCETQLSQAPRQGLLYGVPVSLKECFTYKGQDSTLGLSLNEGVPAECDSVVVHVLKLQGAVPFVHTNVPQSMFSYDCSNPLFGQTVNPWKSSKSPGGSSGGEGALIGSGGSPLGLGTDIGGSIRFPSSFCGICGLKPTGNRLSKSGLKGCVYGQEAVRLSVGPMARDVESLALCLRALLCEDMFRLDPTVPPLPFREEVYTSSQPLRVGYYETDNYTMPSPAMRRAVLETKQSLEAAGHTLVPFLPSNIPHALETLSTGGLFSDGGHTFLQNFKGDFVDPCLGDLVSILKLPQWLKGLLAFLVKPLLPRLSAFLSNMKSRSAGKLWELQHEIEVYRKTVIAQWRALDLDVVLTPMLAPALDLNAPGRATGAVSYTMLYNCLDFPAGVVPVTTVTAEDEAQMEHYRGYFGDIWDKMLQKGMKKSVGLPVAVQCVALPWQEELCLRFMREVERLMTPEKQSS
Listed compounds paired with reported Ki

| COMPOUND | TESTED ON | Ki |
| --- | --- | --- |
| CC(C)(C)[C@H]1CC[C@@]2(CC1)CC(Br)=NO2 | UniProt:O00519 | 100 to 1000 nM |
| Clc1ccc(CN2CCC3(CC2)CC(Br)=NO3)cc1Cl | UniProt:O00519 | ≤ 100 nM |
| Cc1ccc(CN2CCC3(CC2)CC(Br)=NO3)cc1 | UniProt:O00519 | ≤ 100 nM |
| O=C(OCc1ccccc1)N1CC2ON=C(Br)C2C1 (centres unmarked) | UniProt:O00519 | ≤ 100 nM |
| BrC1=NOC2(CCC3(CC2)OCCO3)C1 | UniProt:O00519 | ≥ 1000 nM |
